Taken from paper PMC10397247.

Target: T1, 4H591-bN
T1 chain: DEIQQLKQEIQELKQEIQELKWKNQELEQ
Experiment: two-hybrid library CCNG1;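 further: natural log of median RNA to DNA barcode read ratio; higher means stronger binding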
Kindly state interaction score for each of the entries shown.
In your answer, state the number alone without any accompanying words.

## Task Data request, read-out interaction score, for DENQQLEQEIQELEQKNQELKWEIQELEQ [4H1081-bN]
## Result -1

## Task Data request, read-out interaction score, for DKNQQLEQKNQELEQKIQELKWEIQELEQ [4H3497-bN]
## Result -0.818

## Task Data request, read-out interaction score, for DKNQQLEQENQELKQKIQELEWEIQELKQ [4H3298-bN]
## Result -0.882

## Task Data request, read-out interaction score, for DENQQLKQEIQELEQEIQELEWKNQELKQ [4H1544-bN]
## Result -0.583

## Task Data request, read-out interaction score, for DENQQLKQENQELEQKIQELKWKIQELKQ [4H1710-bN]
## Result -0.724

## Task Data request, read-out interaction score, for DEIQQLKQEIQELKQEIQELKWKNQELEQ [4H591-bN]
## Result 1.27

## Task Data request, read-out interaction score, for DKNQQLKQEIQELEQENQELKWKIQELEQ [4H3613-bN]
## Result -0.893
